assay: in vivo; settings: C57BL/6, mouse, po, 50 mg/kg, AUClast, Compound P3 in plasma, PO 50 mg/kg (PO_A), C57BL/6 mice, Mean n = 3
endpoint-name: AUC(0-t)
In your response, the unit should come after the numeric value.

// field: AUC(0-t); key: O=C(Nc1ccc([N+](=O)[O-])cc1Cl)c1cc(Cl)ccc1OC(=O)N1CCNCC1 [Compound P3] ; value = 9730 ng·h/mL

----------
test: in vivo; settings: C57BL/6, mouse, po, 50 mg/kg, t1/2, Compound P3 in plasma, PO 50 mg/kg (PO_A), C57BL/6 mice, Mean n = 3
endpoint-name: half-life

Kindly note the recorded half-life for O=C(Nc1ccc([N+](=O)[O-])cc1Cl)c1cc(Cl)ccc1OC(=O)N1CCNCC1 , which is 4.14 h

----------
experiment: in vivo; conditions: C57BL/6, mouse, po, 50 mg/kg, AUCInf, Compound P3 in plasma, PO 50 mg/kg (PO_A), C57BL/6 mice, Mean n = 3
endpoint-name: AUC(0-inf)
Give the figure together with its unit, number first.

O=C(Nc1ccc([N+](=O)[O-])cc1Cl)c1cc(Cl)ccc1OC(=O)N1CCNCC1 yielded AUC(0-inf) of 88700 ng·h/mL

----------
assay: Pharmacokinetics in mice IV 3 and PO 10 mg/kg; plasma, lung and liver; details: mouse, in vivo, po, 10 mg/kg, AUClast, mouse Plasma; Compound P3 dosed PO 10 mg/kg
endpoint-name: AUC(0-t) (ng·h/mL)
One number for each entry, in ng·h/mL.

Per the records, this compound ( O=C(Nc1ccc([N+](=O)[O-])cc1Cl)c1cc(Cl)ccc1OC(=O)N1CCNCC1 ) has AUC(0-t) equal to 3510

----------
assay: Pharmacokinetics in male hamsters, plasma and lung, IV 3 mg/kg or PO 30 mg/kg; conditions: male, hamster, in vivo, iv, 3 mg/kg, Ratio (Lung/Plasma), Mean, Compound P3 IV 3 mg/kg, 8 h
endpoint-name: Kp at 8 h
One number for each entry.

GET /value?item= O=C(Nc1ccc([N+](=O)[O-])cc1Cl)c1cc(Cl)ccc1OC(=O)N1CCNCC1 &field=Kp at 8 h returns 77

----------
test system: Vero-E6; assay: Cytotoxicity counter screen (cell viability, CellTiter-Glo); format: cell-based; details: Chlorocebus sabaeus, Vero C1008; uninfected Vero-E6, 72 h, CellTiter-Glo; read-out: IC50 (μM) cell viability
IC50 under 0.6 µM gets fulfilled, anything at or over 0.6 µM gets not fulfilled.

Here's what some known entries look like.
O=C(Nc1ccc(C(F)(F)F)c(F)c1)c1cc(Br)ccc1O : fulfilled
O=C(Oc1ccc(Cl)cc1C(=O)Nc1ccc([N+](=O)[O-])cc1Cl)c1ccc(C(F)(F)F)cc1 [Compound P1] : fulfilled
CC(=O)Oc1ccc(Cl)cc1C(=O)Nc1ccc([N+](=O)[O-])cc1Cl : fulfilled
COCC(=O)Oc1ccc(Cl)cc1C(=O)Nc1ccc([N+](=O)[O-])cc1Cl : fulfilled
CC(C)OC(=O)Oc1ccc(Cl)cc1C(=O)Nc1ccc([N+](=O)[O-])cc1Cl : fulfilled

Determine if CCCCCCCC(=O)Oc1ccc(Cl)cc1C(=O)Nc1ccc([N+](=O)[O-])cc1Cl [Compound P2] shows IC50 strictly lower than 0.6 µM.
fulfilled

Record N#Cc1ccc(NC(=O)c2cc(Cl)ccc2O)c(Cl)c1 : is its IC50 strictly below 0.6 µM?
not fulfilled

Check if IC50 falls below 0.6 µM for O=C(Oc1ccc(Cl)cc1C(=O)Nc1ccc([N+](=O)[O-])cc1Cl)c1ccccc1 .
fulfilled

I wonder whether O=C(Nc1ccc([N+](=O)[O-])cc1Cl)c1cc(Cl)ccc1OC1CCNCC1 has IC50 below 0.6 µM. Can you tell?
not fulfilled

Here's an entry: CC(C)COC(=O)Oc1ccc(Cl)cc1C(=O)Nc1ccc([N+](=O)[O-])cc1Cl . Is its IC50 below 0.6 µM?
fulfilled
